tested on: HCI-023 (organoid from a triple-negative breast cancer xenograft); assay: CTG-3D luminescence at 96 h relative to day-0 seeding control (ratio to day 0); higher = more growth / less cytotoxicity; PDxO 3D drug screen, 96 h, CTG-3D normalised to day-0 seeding control.; details: 10 µM; days in culture: 128
Mark NO for CTG-3D luminescence at 96 h values under 0.7, and YES for everything at or above.

[
  {
    "molecule": "CCN(c1cc(C#CCN2CCOCC2)cc(C(=O)NCc2c(C)cc(C)[nH]c2=O)c1C)[C@H]1CC[C@H](N(C)CCOC)CC1",
    "cat": "YES"
  },
  {
    "molecule": "O=C(c1ccc(F)c(F)c1Nc1ccc(I)cc1F)N1CC(O)([C@@H]2CCCCN2)C1",
    "cat": "NO"
  },
  {
    "molecule": "C=CC(=O)N1CCC[C@@H](n2nc(-c3ccc(Oc4ccccc4)cc3)c3c(N)ncnc32)C1",
    "cat": "YES"
  },
  {
    "molecule": "CC1(C)CCC(c2ccc(Cl)cc2)=C(CN2CCN(c3ccc(C(=O)NS(=O)(=O)c4ccc(N[C@H](CCN5CCOCC5)CSc5ccccc5)c(S(=O)(=O)C(F)(F)F)c4)cc3)CC2)C1",
    "cat": "YES"
  },
  {
    "molecule": "NC1(C(=O)N[C@@H](CCO)c2ccc(Cl)cc2)CCN(c2nc[nH]c3nccc2-3)CC1",
    "cat": "NO"
  },
  {
    "molecule": "C[C@]12CC[C@@H]3c4ccc(O)cc4C[C@@H](CCCCCCCCC[S+]([O-])CCCC(F)(F)C(F)(F)F)[C@H]3[C@@H]1CC[C@@H]2O (some centres not stated)",
    "cat": "YES"
  }
]

---

system: HCI-019 (organoid from a triple-negative breast cancer xenograft); assay: CTG-3D luminescence at 96 h relative to day-0 seeding control (ratio to day 0); higher = more growth / less cytotoxicity; PDxO 3D drug screen (set 2), 96 h, CTG-3D normalised to day-0 seeding control.; settings: 10 µM; days in culture: 173

[
  {
    "compound": "COc1cccc2c1C(=O)c1c(O)c3c(c(O)c1C2=O)C[C@@](O)(C(=O)CO)C[C@@H]3O[C@H]1C[C@H](N)[C@@H](O)[C@H](C)O1 [epirubicin]",
    "CTG-3D luminescence at 96 h": 0.0215
  },
  {
    "compound": "CO[C@H]1C[C@@H]2CC[C@@H](C)[C@@](O)(O2)C(=O)C(=O)N2CCCC[C@H]2C(=O)O[C@H]([C@H](C)C[C@@H]2CC[C@@H](O)[C@H](OC)C2)CC(=O)[C@H](C)/C=C(\\C)[C@@H](O)[C@@H](OC)C(=O)[C@H](C)C[C@H](C)/C=C/C=C/C=C/1C",
    "CTG-3D luminescence at 96 h": 1.43
  },
  {
    "compound": "CS(=O)(=O)CCNCc1ccc(-c2ccc3ncnc(Nc4ccc(OCc5cccc(F)c5)c(Cl)c4)c3c2)o1",
    "CTG-3D luminescence at 96 h": 0.415
  },
  {
    "compound": "CCOc1ccn(-c2ccc(F)cc2)c(=O)c1C(=O)Nc1ccc(Oc2ccnc(N)c2Cl)c(F)c1",
    "CTG-3D luminescence at 96 h": 1.16
  },
  {
    "compound": "CC(C)n1nc(-c2ccc3oc(N)nc3c2)c2c(N)ncnc21",
    "CTG-3D luminescence at 96 h": 0.352
  },
  {
    "compound": "Nc1cc(C(F)(F)F)c(-c2cc(N3CCOCC3)nc(N3CCOCC3)n2)cn1",
    "CTG-3D luminescence at 96 h": 0.425
  }
]

---

system: HCI-017.E2 (organoid from an ER-positive breast cancer xenograft); test: CTG-3D luminescence at 96 h relative to day-0 seeding control (ratio to day 0); higher = more growth / less cytotoxicity; PDxO 3D drug screen (set 2), 96 h, CTG-3D normalised to day-0 seeding control.; settings: 0.1 µM; days in culture: 85
Mark 0 for CTG-3D luminescence at 96 h values under 2, and 1 for everything at or above.

[
  {
    "compound": "CC(C)n1nc(-c2ccc3oc(N)nc3c2)c2c(N)ncnc21 [sapanisertib]",
    "cat": 0
  },
  {
    "compound": "CCOc1ccn(-c2ccc(F)cc2)c(=O)c1C(=O)Nc1ccc(Oc2ccnc(N)c2Cl)c(F)c1 [ASLAN002]",
    "cat": 1
  },
  {
    "compound": "CS(=O)(=O)CCNCc1ccc(-c2ccc3ncnc(Nc4ccc(OCc5cccc(F)c5)c(Cl)c4)c3c2)o1 [lapatinib]",
    "cat": 1
  },
  {
    "compound": "Nc1cc(C(F)(F)F)c(-c2cc(N3CCOCC3)nc(N3CCOCC3)n2)cn1 [buparlisib]",
    "cat": 0
  },
  {
    "compound": "O=C(c1cc(Cc2n[nH]c(=O)c3ccccc23)ccc1F)N1CCN(C(=O)C2CC2)CC1 [olaparib]",
    "cat": 1
  }
]

---

system: HCI-023; test: CTG-3D luminescence at 96 h relative to day-0 seeding control (ratio to day 0); higher = more growth / less cytotoxicity; PDxO 3D drug screen (set 2), 96 h, CTG-3D normalised to day-0 seeding control.; conditions: 0.1 µM; days in culture: 238
Entries and their measured CTG-3D luminescence at 96 h follow.
recorded.metric: CTG-3D luminescence at 96 h

[
  {
    "compound": "CC(C)n1nc(-c2ccc3oc(N)nc3c2)c2c(N)ncnc21",
    "numeric.readout": 0.777
  },
  {
    "compound": "CC(=O)c1c(C)c2cnc(Nc3ccc(N4CCNCC4)cn3)nc2n(C2CCCC2)c1=O",
    "numeric.readout": 1.48
  },
  {
    "compound": "COc1cccc2c1C(=O)c1c(O)c3c(c(O)c1C2=O)C[C@@](O)(C(=O)CO)C[C@@H]3O[C@H]1C[C@H](N)[C@@H](O)[C@H](C)O1 [epirubicin]",
    "numeric.readout": 0.9
  },
  {
    "compound": "CO[C@H]1C[C@@H]2CC[C@@H](C)[C@@](O)(O2)C(=O)C(=O)N2CCCC[C@H]2C(=O)O[C@H]([C@H](C)C[C@@H]2CC[C@@H](O)[C@H](OC)C2)CC(=O)[C@H](C)/C=C(\\C)[C@@H](O)[C@@H](OC)C(=O)[C@H](C)C[C@H](C)/C=C/C=C/C=C/1C",
    "numeric.readout": 1.42
  }
]

---

test system: HCI-015 (organoid from a triple-negative breast cancer xenograft); experiment: CTG-3D luminescence at 96 h relative to day-0 seeding control (ratio to day 0); higher = more growth / less cytotoxicity; PDxO 3D drug screen, 96 h, CTG-3D normalised to day-0 seeding control.; conditions: 100 µM; days in culture: 218
Entries and their measured CTG-3D luminescence at 96 h follow.

[
  {
    "compound": "COc1cccc2c1C(=O)c1c(O)c3c(c(O)c1C2=O)C[C@@](O)(C(=O)CO)C[C@@H]3O[C@H]1C[C@H](N)[C@H](O)[C@H](C)O1",
    "CTG-3D luminescence at 96 h": 0.0222
  },
  {
    "compound": "CC(=O)O[C@H]1C(=O)[C@@]2(C)[C@H]([C@H](OC(=O)c3ccccc3)[C@]3(O)C[C@H](OC(=O)[C@H](O)[C@@H](NC(=O)c4ccccc4)c4ccccc4)C(C)=C1C3(C)C)[C@]1(OC(C)=O)CO[C@@H]1C[C@@H]2O",
    "CTG-3D luminescence at 96 h": 0.39
  },
  {
    "compound": "CCN(c1cc(C#CCN2CCOCC2)cc(C(=O)NCc2c(C)cc(C)[nH]c2=O)c1C)[C@H]1CC[C@H](N(C)CCOC)CC1",
    "CTG-3D luminescence at 96 h": 0.907
  },
  {
    "compound": "CCc1c2c(nc3ccc(O)cc13)-c1cc3c(c(=O)n1C2)COC(=O)[C@]3(O)CC",
    "CTG-3D luminescence at 96 h": 0.0388
  },
  {
    "compound": "Cc1cc(Nc2ncc(Cl)c(Nc3ccccc3S(=O)(=O)C(C)C)n2)c(OC(C)C)cc1C1CCNCC1",
    "CTG-3D luminescence at 96 h": -0.00473
  },
  {
    "compound": "Cc1nc(-c2cn3c(n2)-c2ccc(-c4cnn(C(C)(C)C(N)=O)c4)cc2OCC3)n(C(C)C)n1",
    "CTG-3D luminescence at 96 h": 0.0074
  },
  {
    "compound": "Cc1cc(Nc2ncnc3ccc(NC4=NC(C)(C)CO4)cc23)ccc1Oc1ccn2ncnc2c1",
    "CTG-3D luminescence at 96 h": 0.0854
  },
  {
    "compound": "CN(Cc1cnc2nc(N)nc(N)c2n1)c1ccc(C(=O)N[C@@H](CCC(=O)O)C(=O)O)cc1 [methotrexate]",
    "CTG-3D luminescence at 96 h": 1.21
  },
  {
    "compound": "C=CC(=O)N1CCC[C@@H](n2nc(-c3ccc(Oc4ccccc4)cc3)c3c(N)ncnc32)C1",
    "CTG-3D luminescence at 96 h": 0.00244
  },
  {
    "compound": "C/C=C1\\NC(=O)[C@H]2CSSCC/C=C/[C@H](CC(=O)N[C@H](C(C)C)C(=O)N2)OC(=O)[C@H](C(C)C)NC1=O",
    "CTG-3D luminescence at 96 h": -0.342
  }
]
